assay: qHTS assay to identify small molecule antagonists of the estrogen related receptor (ERR) signaling pathway from Tox21 library - cell viability counter screen (AID 1224834); details: ERR reporter cells viability, CellTiter-Fluor, 17.5 h; series mostly up to 92.4 µM; also: nearly all actives have a fitted effect of over 30% in size
Results filed as inconclusive are left out. The source made the active and inactive calls. Calls follow the shape of the dose curve; as a rule, active = well fitted cell-killing curve with a large enough effect in the repeat runs; inconclusive = weak or mixed curves; inactive = flat fitted curve, though single readings scatter.
Reply using exactly one outcome from true (1) = active, false (0) = inactive

Q: Returns: the outcome recorded for O=c1[nH]c(=O)n(Cl)c(=O)n1Cl in this assay.
Ans: false (0)

Q: Dear colleague, could you share the recorded outcome for CCn1cc[n+](C)c1C when you have a moment?
Ans: false (0)

Q: Which result was noted for this compound in the test: COc1ccccc1N
Ans: false (0)

Q: Which result was noted for this compound in the test: CCCC[N+]1(C)CCCC1
Ans: false (0)

Q: Hey, what did the test say about Cc1cc(Cl)ccc1N ?
Ans: false (0)
